Data origin, for the record: the RNAGym collection of RNA variant scans (doi:10.1093/molbev/msab373)

B1: Azoarcus group I ribozyme (parent)
chain: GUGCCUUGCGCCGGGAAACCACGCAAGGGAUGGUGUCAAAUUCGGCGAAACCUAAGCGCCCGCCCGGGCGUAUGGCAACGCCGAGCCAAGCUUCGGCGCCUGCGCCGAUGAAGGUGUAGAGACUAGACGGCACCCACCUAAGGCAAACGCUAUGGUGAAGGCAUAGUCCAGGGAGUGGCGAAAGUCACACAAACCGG

variants of: B1; test: reverse-splicing fitness (ratio to wild type); higher = more active; in vitro selection; Mg2+ level not given
quantity-measured: reverse-splicing fitness
Just the number.

In [3]: df
Out[3]:
                      mutation_string         quantity_measured  quantitative_result
0  C82U A111U A120G A145C C150A C169A  reverse-splicing fitness              0.00756
1        C82U A120U C150A C169G U176A  reverse-splicing fitness              0.00443
2       A111G A120C A145C C169U U176A  reverse-splicing fitness               0.0611

Assign reverse-splicing fitness to the following record: A111U A145U C150G C169G U176A
0.00711

Assign reverse-splicing fitness to the following record: C82U A111U A120C A145C C169A U176G
0.00392

Assign reverse-splicing fitness to the following record: C82G A111G A120G C169A U176A
0.022

Assign reverse-splicing fitness to the following record: C82U A111G A145C C150U
0.091

Assign reverse-splicing fitness to the following record: C82U A111G A120G C150G C169G U176A
0.00604

Assign reverse-splicing fitness to the following record: C82A A120C A145G C150U C169G U176C
0.0202

Assign reverse-splicing fitness to the following record: C82U A111G A120C A145U C150G C169A U176G
0.00477

Assign reverse-splicing fitness to the following record: C82G A111C A120C A145U C150A C169G
0.0083
